Attribution: patent US20210161131A1

So I've got a bunch of molecules here, and I need their inhibition rate on the stem growth of barnyard grass seeds values.
system: barnyard grass seeds; test: Petri dish seed germination method: inhibition of root and stem growth of barnyard grass; format: in vivo; settings: 0.15625 mmol/L, 96 hours incubation
Answers are plain numbers, in %.

Use these answered entries as a reference point.
In [3]: df
Out[3]:
                                   molecule  observed
0  CC1(NCc2ccc(Cl)cc2)CCC(C(C)(C)NCc2ccc(Cl)cc2)CC1 (stereo not shown)      35.7
1  CN(C)c1ccc(CNC2(C)CCC(C(C)(C)NCc3ccc(N(C)C)cc3)CC2)cc1 (stereo not shown)      19.1
2  CC1(NCc2ccc(F)cc2)CCC(C(C)(C)NCc2ccc(F)cc2)CC1 (stereo not shown)       7.2
3  CC1(NCc2cccnc2)CCC(C(C)(C)NCc2cccnc2)CC1 (stereo not shown)      38.0
4  Cc1ccc(CNC(C)(C)[C@H]2CC[C@@](C)(NCc3ccc(C)cc3)CC2)cc1      42.1

Kindly give each listed record's inhibition rate on the stem growth of barnyard grass seeds.
1. CC1(NCc2ccncc2)CCC(C(C)(C)NCc2ccncc2)CC1 (stereo not shown)
2. CC1(NCc2ccc(Br)o2)CCC(C(C)(C)NCc2ccc(Br)o2)CC1 (stereo not shown)

[28.6, 10.1]

Hey, can you go through the list below and give me inhibition rate on the stem growth of barnyard grass seeds for every item?
1. Cc1ccc(CNC(C)(C)[C@H]2CC[C@@](C)(NCc3ccc(C)o3)CC2)o1
2. CC(C)(NCc1ccccc1C(F)(F)F)[C@H]1CC[C@@](C)(NCc2ccccc2C(F)(F)F)CC1
3. CC1(NCc2ccc[nH]2)CCC(C(C)(C)NCc2ccc[nH]2)CC1 (stereo not shown)

1: 7.2; 2: 36.9; 3: 15.4
